Would you mind telling me the reported Chip Fluorescence (max) of each entry?
- System: GST-tagged Cn
- assay.method.text: PEPperPRINT peptide microarray binding assay with GST-tagged Cn
- test.conditions: max over the chip locations listed for the peptide (two spots)
API doc: respond with a numeric literal and nothing else, no unit.

Input: For the sequence TFWANPQYKIHLEEED [SeqRBMlowT_4653] , what Chip Fluorescence (max) is on record?
Output: 4.098

Input: For the sequence TFWSNPQFRITLEDPD [SeqRBMlowT_45] , what Chip Fluorescence (max) is on record?
Output: 4.041

Input: For the sequence TFWSNPQFDIALDDDD [SeqRBM_1928] , what Chip Fluorescence (max) is on record?
Output: 3.897

Input: For the sequence ADEANPEITITPPELP [SeqRBMlowT_372] , what Chip Fluorescence (max) is on record?
Output: 6.273

Input: For the sequence DTLWIGSGTVTDSGNY [SeqRBM_1220] , what Chip Fluorescence (max) is on record?
Output: 3.766

Input: For the sequence GTLYDNVLGIESFSLS [SeqRBMlowT_4817] , what Chip Fluorescence (max) is on record?
Output: 3.464

Input: For the sequence TTLVIPQMRLTSEATF [SeqRBM_1117] , what Chip Fluorescence (max) is on record?
Output: 5.611

Input: For the sequence KKMSPPCIVVSPPEED [SeqRBMlowT_306] , what Chip Fluorescence (max) is on record?
Output: 6.125

Input: For the sequence QELFISNITVDHSGSY [SeqCEACAM5_Aotus_nancymaae] , what Chip Fluorescence (max) is on record?
Output: 6.254

Input: For the sequence ADEAIPEIVISKPEEP [SeqRBMlowT_2534] , what Chip Fluorescence (max) is on record?
Output: 18.5398

Input: For the sequence TFWTNPQFRITLEEED [SeqRBMlowT_658] , what Chip Fluorescence (max) is on record?
Output: 4.839

Input: For the sequence IKLIIWNHNISNHGTY [SeqRBM_5872] , what Chip Fluorescence (max) is on record?
Output: 8.925

Input: For the sequence SNLACNDRHPNNEDAK [Seqshuffled_9450] , what Chip Fluorescence (max) is on record?
Output: 5.333

Input: For the sequence PSEDQPGIVVHVCEEG [SeqRBMlowT_361] , what Chip Fluorescence (max) is on record?
Output: 3.843

Input: For the sequence TFWMNPQFKISLEDPD [SeqRBMlowT_4243] , what Chip Fluorescence (max) is on record?
Output: 3.47

Input: For the sequence VDIATNDLISELCNLC [Seqrandom_9952] , what Chip Fluorescence (max) is on record?
Output: 4.084

Input: For the sequence QSNSTPTITITPPSDA [SeqRBM_9156] , what Chip Fluorescence (max) is on record?
Output: 7.93

Input: For the sequence ADEASPRIVITPPELP [SeqRBMlowT_1222] , what Chip Fluorescence (max) is on record?
Output: 3.902

Input: For the sequence LKDEIPEVRLNIISNL [SeqRBMlowT_1003] , what Chip Fluorescence (max) is on record?
Output: 3.957

Input: For the sequence KAYMNPFMQFIDGGRR [SeqRBMlowT_560] , what Chip Fluorescence (max) is on record?
Output: 4.3098

Input: For the sequence TFWTNPQFRVTLTEPD [SeqRBMlowT_9005] , what Chip Fluorescence (max) is on record?
Output: 5.558

Input: For the sequence TFWTNPQYRLKLEDVD [SeqRBMlowT_929] , what Chip Fluorescence (max) is on record?
Output: 6.02

Input: For the sequence KKMAPPCINIDPAPEN [SeqRBMlowT_2431] , what Chip Fluorescence (max) is on record?
Output: 3.662

Input: For the sequence KHLDVPDIIITPPTPT [SeqC16orf74_Pan_troglodytes] , what Chip Fluorescence (max) is on record?
Output: 11.1628

Input: For the sequence LLDDVPDVVVHPPEED [SeqRBMlowT_144] , what Chip Fluorescence (max) is on record?
Output: 4.37

Input: For the sequence ARSFCPHRQVLSCKPK [SeqRBM_8304] , what Chip Fluorescence (max) is on record?
Output: 4.921

Input: For the sequence SVDKHPRVYVATSRED [SeqRBM_4749] , what Chip Fluorescence (max) is on record?
Output: 4.793

Input: For the sequence FLGRGPQLEDFDPSRD [Seqshuffled_9338] , what Chip Fluorescence (max) is on record?
Output: 4.229

Input: For the sequence TTAMNPQFFVQIPRTA [SeqCAPN11_Daphnia_magna_2] , what Chip Fluorescence (max) is on record?
Output: 9.6825

Input: For the sequence TNSHNPQVDLKIPQVR [SeqRBMlowT_6893] , what Chip Fluorescence (max) is on record?
Output: 5.271

Input: For the sequence RLFSVCEQEEEIERAP [Seqshuffled_9643] , what Chip Fluorescence (max) is on record?
Output: 4.044

Input: For the sequence TFWTNPQFKITLEEED [SeqRBMlowT_217] , what Chip Fluorescence (max) is on record?
Output: 4.393

Input: For the sequence SSRSSSRPARSPERKP [SeqRGA2_Fusarium_oxysporum] , what Chip Fluorescence (max) is on record?
Output: 4.629

Input: For the sequence RTRRISPLFDNPNSKQ [Seqshuffled_9774] , what Chip Fluorescence (max) is on record?
Output: 4.819

Input: For the sequence PLGTQPGIVVHVCELN [SeqRBMlowT_356] , what Chip Fluorescence (max) is on record?
Output: 4.334

Input: For the sequence KGCAAPAISIDFAPIN [SeqRBM_541] , what Chip Fluorescence (max) is on record?
Output: 6.269

Input: For the sequence GGPGTPTRQGQPLAPS [SeqRBMlowT_7789] , what Chip Fluorescence (max) is on record?
Output: 4.384

Input: For the sequence RSYDVPVFLFTYLPNP [SeqRBM_7048] , what Chip Fluorescence (max) is on record?
Output: 4.515

Input: For the sequence EGKMDPELYISTVEAQ [SeqRBM_3392] , what Chip Fluorescence (max) is on record?
Output: 3.895

Input: For the sequence ASVSNPEITVTSAETE [SeqRBM_9489] , what Chip Fluorescence (max) is on record?
Output: 15.1807

Input: For the sequence FHYEDLSWHFQLFEGE [Seqrandom_9976] , what Chip Fluorescence (max) is on record?
Output: 5.256

---

- Test system: GST-tagged Cn
- assay.method.text: PEPperPRINT peptide microarray binding assay with GST-tagged Cn
- test.conditions: GST-tagged Cn, max over the spots on the chip (two locations)
value.kind: Chip Fluorescence (max)
API doc: respond with a numeric literal and nothing else, no unit.

Input: For the sequence TFWTNPQYRVKLEEPD [SeqRBMlowT_2230] , what Chip Fluorescence (max) is on record?
Output: 1.125

Input: For the sequence KKMSPPCINIDPAPEN [SeqRBMlowT_2410] , what Chip Fluorescence (max) is on record?
Output: 1.08

Input: For the sequence TFWTNPQYRVHVPDED [SeqRBMlowT_2927] , what Chip Fluorescence (max) is on record?
Output: 1.2431

Input: For the sequence LKDEFPDVRLHIISKL [SeqRCN1_Arthroderma_otae] , what Chip Fluorescence (max) is on record?
Output: 1.269

Input: For the sequence TFWTNPQYRLNIIDPD [SeqRBMlowT_94] , what Chip Fluorescence (max) is on record?
Output: 1.251

Input: For the sequence SLKLWMLLGIEAFTLS [SeqRBM_4562] , what Chip Fluorescence (max) is on record?
Output: 1.02

Input: For the sequence HSKFIPKLSLQSPVHH [SeqRBMlowT_1695] , what Chip Fluorescence (max) is on record?
Output: 1.29

Input: For the sequence KKMSPPCISVDPPDEL [SeqCACNA1H_Nothobranchius_rachovii] , what Chip Fluorescence (max) is on record?
Output: 1.26

Input: For the sequence KKMSPPCINIDPAPTN [SeqRBMlowT_1811] , what Chip Fluorescence (max) is on record?
Output: 0.9886

Input: For the sequence LNLKIPEIDSSDMSAH [SeqFLNA_Erinaceus_europaeus] , what Chip Fluorescence (max) is on record?
Output: 1.157

Input: For the sequence TFWTNPQYRVKVTEPD [SeqRBMlowT_7349] , what Chip Fluorescence (max) is on record?
Output: 1.274

Input: For the sequence QLLAVPALSVDRKGPK [SeqCACUL1_Dipodomys_ordii] , what Chip Fluorescence (max) is on record?
Output: 1.085

Input: For the sequence RTYMNPFASFLDHSHR [SeqSFB3_Pseudocercospora_musae] , what Chip Fluorescence (max) is on record?
Output: 1.14

Input: For the sequence VQLFIHLPSSDDTGSY [SeqRBM_6875] , what Chip Fluorescence (max) is on record?
Output: 1.006

Input: For the sequence TFWTNPQFVTLVKDGD [SeqRBM_8117] , what Chip Fluorescence (max) is on record?
Output: 1.011

Input: For the sequence RNPGQALLELKGHSAQ [SeqRBMlowT_7734] , what Chip Fluorescence (max) is on record?
Output: 1.17

Value source: paper PMC9928118
